measuredOn: human A2A receptor (Homo sapiens (Human), UniProt P29274)
Sequence (P29274 whole entry): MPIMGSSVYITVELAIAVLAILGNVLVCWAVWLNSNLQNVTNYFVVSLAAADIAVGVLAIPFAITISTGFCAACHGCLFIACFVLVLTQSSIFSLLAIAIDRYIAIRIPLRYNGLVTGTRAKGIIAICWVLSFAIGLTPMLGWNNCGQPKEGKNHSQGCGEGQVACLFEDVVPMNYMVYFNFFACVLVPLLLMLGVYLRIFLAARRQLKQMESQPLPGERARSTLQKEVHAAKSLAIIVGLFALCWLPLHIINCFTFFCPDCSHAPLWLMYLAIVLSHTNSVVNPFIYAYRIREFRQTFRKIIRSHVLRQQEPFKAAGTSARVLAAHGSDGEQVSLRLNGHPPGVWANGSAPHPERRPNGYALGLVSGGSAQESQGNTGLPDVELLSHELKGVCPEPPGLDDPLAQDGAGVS
testName: A2A competition binding assay using Scintillation Proximity technology
protocolConditions: values marked ^: 1 μg of membrane/well (HEK293 cells expressing the human A2a receptor); 0.5 nM tritiated radioligand; Cheng-Prusoff
Here the recorded Ki is given for each entry.
Unit nM implied. Number only.

Examples with answers:
compound	measuredOn	Ki, nM
COc1cccc2c1nc(N)n1nc([C@@H]3CCCN(c4ncc(C)s4)C3)nc21	human A2A receptor (Homo sapiens (Human), UniProt P29274)	0.8
COc1cccc(C(=O)N2CCC[C@@H](c3nc4c5cccc(OC)c5nc(N)n4n3)C2)c1	human A2A receptor (Homo sapiens (Human), UniProt P29274)	1.9
COc1cccc2c1nc(N)n1nc([C@@H]3CCCN(c4nnc(C)s4)C3)nc21	human A2A receptor (Homo sapiens (Human), UniProt P29274)	2

Query string: Report Ki for Nc1nc2c(Cl)cccc2c2nc(C3CCCN(CCC(F)(F)F)C3)nn12 (racemic) please.
Result string: 9.7

Query string: What do we get for COc1cccc2c1nc(N)n1nc([C@@H]3CCCN(C(=O)C(C)(C)C)C3)nc21 ?
Result string: 4.4

Query string: Now try COc1cccc2c1nc(N)n1nc([C@@H]3CCCN(c4nncs4)C3)nc21 .
Result string: 1.9

Query string: And the next one, COc1cccc2c1nc(N)n1nc(C3CCN(c4cccc(F)c4)C3)nc21 (racemic) ?
Result string: 1.4

Query string: And the next one, COc1cccc2c1nc(N)n1nc([C@@H]3CCCN(C(=O)c4cccs4)C3)nc21 ?
Result string: 2.7
